Cited source: paper PMC5512577

# tested on: T1, phosphodiesterase 6 delta subunit (PDE6δ), N-terminal histidine-tagged (UniProt O43924 1-150)
# T1 construct: PDE6δ, the delta subunit of phosphodiesterase 6; the PDE6δ of PDB 3T5G was the search model for the structure solved here (5F2U); also called PrBP/PDE6δ; source: E. coli BL21-CodonPlus(DE3)-RIL, purified (Ni-NTA, gel filtration)
# test method notes: fluorescence polarisation; competition: complex of 0.5 μM FITC-labelled Rheb peptide and 1 μM PDE6δ titrated with unlabelled mutant peptide; fitted with a competition model; 20 °C
# experimental conditions: both partners purified
Ends that are not written are not given here. Far = not defined here
property name: Kd (nM)
One number for each entry, in nM.

Please give measured Kd of the following entry: SQGSSIC(Far)-OMe (reading uncertain, C-terminal peptide of Rheb with the -1 and -3 residues swapped to those of INPP5E; Unlabelled; also called SQGSSIC(Far)-OMe; source: synthetic peptide, bought: CambridgePeptides) [Rheb(SI) peptide (K178S/S180I), farnesylated and carboxy-methylated]
12
